Assay: NCI Yeast Anticancer Drug Screen. Data for the mec2-1 strain (AID 157)
Conditions: S. cerevisiae mec2-1 strain, at 50.0 µM, active compounds read high
This is part of a sample that, as a whole, favours compounds with a hit. Of some 79,000 tested, about 15% had one in any assay.
The following molecules are listed with their measured growth inhibition values.
reported.property: growth inhibition (%)

[
  {
    "molecule": "O=C1Cc2c(c3ccccc3c3ccccc23)C1",
    "reported.property": "growth inhibition",
    "test.result": 7.5
  },
  {
    "molecule": "CN(C)C(=O)C1C2C=CC(CCC2)C1C(=O)N(C)C (stereo unspecified)",
    "reported.property": "growth inhibition",
    "test.result": 15.6
  },
  {
    "molecule": "O=C(Nc1ccccc1)c1cc(S(=O)(=O)n2cc[nH]c2=O)c(S)cc1Cl",
    "reported.property": "growth inhibition",
    "test.result": 3.6
  },
  {
    "molecule": "COc1ccc(-c2c(C#N)c(S)n(C3OC(COC(C)=O)C(OC(C)=O)C(OC(C)=O)C3OC(C)=O)c(=O)c2C#N)cc1 (stereo unspecified)",
    "reported.property": "growth inhibition",
    "test.result": -12.2
  },
  {
    "molecule": "CCc1nnc(CC)n1NCCCC(=O)O",
    "reported.property": "growth inhibition",
    "test.result": 24.2
  },
  {
    "molecule": "COC(=N)CCCl",
    "reported.property": "growth inhibition",
    "test.result": -3.95
  },
  {
    "molecule": "O=c1[nH]c(=S)c2cncnc2n1C1OC(CO)C(O)C1O (stereo unspecified)",
    "reported.property": "growth inhibition",
    "test.result": 11.8
  },
  {
    "molecule": "N/C(=N\\Cl)C(Cl)(Cl)Cl",
    "reported.property": "growth inhibition",
    "test.result": -16.5
  },
  {
    "molecule": "CCCCCCCCCc1ccc(OCCOC(=O)OCCOc2ccc(CCCCCCCCC)cc2)cc1",
    "reported.property": "growth inhibition",
    "test.result": -21.9
  },
  {
    "molecule": "COC(=O)C(=O)c1c(C(=O)OC)nc2[nH]n(-c3ccccc3)c(=O)c2c1Cc1ccccc1",
    "reported.property": "growth inhibition",
    "test.result": 1.05
  },
  {
    "molecule": "NC(=O)/C=C/C(N)=O",
    "reported.property": "growth inhibition",
    "test.result": -9.45
  },
  {
    "molecule": "CCOC(=O)C1=C(C)Oc2cc3c(cc2C1c1ccc(OC)cc1)OCO3 (stereo unspecified)",
    "reported.property": "growth inhibition",
    "test.result": 5.8
  },
  {
    "molecule": "CC(=O)Oc1cccn(C)c1=O",
    "reported.property": "growth inhibition",
    "test.result": 19.1
  },
  {
    "molecule": "O=C(O)c1ccc2c(c1)CC1(C2)Cc2ccccc2C1=O (stereo unspecified)",
    "reported.property": "growth inhibition",
    "test.result": -4.9
  },
  {
    "molecule": "CCCCOC(=O)/C=C/c1ccc(OC(C)C)cc1",
    "reported.property": "growth inhibition",
    "test.result": -9
  },
  {
    "molecule": "CCC1Cc2ccccc2OC1=O (stereo unspecified)",
    "reported.property": "growth inhibition",
    "test.result": -3.6
  },
  {
    "molecule": "CC/C(C)=N\\NC(N)=O",
    "reported.property": "growth inhibition",
    "test.result": 6.7
  },
  {
    "molecule": "COc1ccc(CN2C(=O)C(=O)N(C)C2=O)c2ccccc12",
    "reported.property": "growth inhibition",
    "test.result": 4.65
  },
  {
    "molecule": "COC(=O)/C=C\\C1(CC(C)C)N=C(c2ccccc2)OC1=O (stereo unspecified)",
    "reported.property": "growth inhibition",
    "test.result": 25.1
  },
  {
    "molecule": "COc1cccc2c1C(=O)C1(O)CCCCC21 (stereo unspecified)",
    "reported.property": "growth inhibition",
    "test.result": -41.6
  },
  {
    "molecule": "O=C(Nc1ccccc1Cl)Oc1ccc(Cl)cc1Cl",
    "reported.property": "growth inhibition",
    "test.result": 20.1
  },
  {
    "molecule": "Nc1scc[n+]1CCC(=O)[O-]",
    "reported.property": "growth inhibition",
    "test.result": 0.75
  },
  {
    "molecule": "CNC(=S)Nc1cccc(C)c1",
    "reported.property": "growth inhibition",
    "test.result": 2.65
  },
  {
    "molecule": "N#CC(/C(=N/NC(N)=S)C(=O)Nc1cccc(Cl)c1)c1ccccc1 (stereo unspecified)",
    "reported.property": "growth inhibition",
    "test.result": 13.8
  },
  {
    "molecule": "CCOC(=O)C[C@](C)(O)C1CCCN1 (stereo partly specified)",
    "reported.property": "growth inhibition",
    "test.result": 11.8
  },
  {
    "molecule": "N#CC(CCc1ccccc1)(c1ccccc1)c1ccccc1",
    "reported.property": "growth inhibition",
    "test.result": -9.05
  }
]
